- TEST_SYSTEM: T1, AIPP3-BAH domain W170A (Arabidopsis, UniProt Q8RXT5 112-279, W170A)
- T1 sequence: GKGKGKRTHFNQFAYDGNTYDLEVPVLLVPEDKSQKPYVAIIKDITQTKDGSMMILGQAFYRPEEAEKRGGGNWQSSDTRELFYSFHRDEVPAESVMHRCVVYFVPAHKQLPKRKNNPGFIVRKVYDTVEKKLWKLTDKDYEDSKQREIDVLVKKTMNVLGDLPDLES
- PROCEDURE_SUMMARY: ITC
Where no end group is shown, it is not given here. Me3 = trimethyl-lysine
OBSERVATION_TYPE: pKd
Answers are plain numbers, as −log10 of the molar value.

Query: pKd for LATKAARK(Me3)SAPATGGVKK [H3K27me3 peptide] ?
Response: 4.55
